B1: RIPK4 (parent)
chain: VSVNAQTLDGRTPLHLAAQRGHYR

Variants of: B1
protocol-notes: protein stability index of a GFP-peptide fusion (GPS, HEK-293T) (PSI 1-6); higher = more stable;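 further: lentivirally expressed fusions sorted by FACS into six bins by GFP to DsRed ratio, PSI derived from sequencing read proportions per bin multiplied by bin number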
assay-context: c terminus: a fixed tail appended
// protein stability index lookup, one value per entry

{"chain-sequence": "VSVNAQTLDGRTPLHPAAQRGHYR [L16P]", "protein stability index": 3.73}
{"chain-sequence": "VSVNAQTLDGRTPLHLAAQRGHMR [Y23M]", "protein stability index": 4.03}
{"chain-sequence": "VSVNAQTLDGRTPLHLAAQRGHYW [R24W]", "protein stability index": 2.48}
{"chain-sequence": "VQVNAQTLDGRTPLHLAAQRGHYR [S2Q]", "protein stability index": 3.22}
{"chain-sequence": "GSVNAQTLDGRTPLHLAAQRGHYR [V1G]", "protein stability index": 3.76}
{"chain-sequence": "VSVNAQTLDGRTPMHLAAQRGHYR [L14M]", "protein stability index": 3.26}
{"chain-sequence": "VSVNAQTLDGRTMLHLAAQRGHYR [P13M]", "protein stability index": 2.42}
{"chain-sequence": "VSVNAQTLDGYTPLHLAAQRGHYR [R11Y]", "protein stability index": 2.98}
{"chain-sequence": "VSVNAQTLDGRTVLHLAAQRGHYR [P13V]", "protein stability index": 2.84}
{"chain-sequence": "VSVNAQTLDCRTPLHLAAQRGHYR [G10C]", "protein stability index": 3.05}
{"chain-sequence": "VSVNAQTLDGRTPLHLAAVRGHYR [Q19V]", "protein stability index": 2.28}
{"chain-sequence": "VLVNAQTLDGRTPLHLAAQRGHYR [S2L]", "protein stability index": 2.86}
{"chain-sequence": "VSVIAQTLDGRTPLHLAAQRGHYR [N4I]", "protein stability index": 2.44}
{"chain-sequence": "HSVNAQTLDGRTPLHLAAQRGHYR [V1H]", "protein stability index": 3.79}
{"chain-sequence": "VSVNAMTLDGRTPLHLAAQRGHYR [Q6M]", "protein stability index": 2.87}
{"chain-sequence": "VSVNANTLDGRTPLHLAAQRGHYR [Q6N]", "protein stability index": 3.03}
{"chain-sequence": "VSVNAQTLDGRTPLHLAAQRGHYV [R24V]", "protein stability index": 2.43}
{"chain-sequence": "VSVNAQTLDVRTPLHLAAQRGHYR [G10V]", "protein stability index": 3.32}
{"chain-sequence": "VSVNAQTLYGRTPLHLAAQRGHYR [D9Y]", "protein stability index": 2.48}
{"chain-sequence": "VSVNAQTLDGRTPLHLAAQRNHYR [G21N]", "protein stability index": 2.88}
{"chain-sequence": "VSVNAQTLDDRTPLHLAAQRGHYR [G10D]", "protein stability index": 3.69}
{"chain-sequence": "VSVNAQTLDGRTPLHLARQRGHYR [A18R]", "protein stability index": 3.32}

Values compiled from the supplement of paper PMC10567573.
